B1: TBC1D10A (parent)
chain: WCLVQICEKYLPGYYSEKLEAIQL

Variants of: B1
Assay: protein stability index of a GFP-peptide fusion (GPS, HEK-293T) (PSI 1-6); higher = more stable;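 further: lentivirally expressed fusions sorted by FACS into six bins by GFP to DsRed ratio, PSI derived from sequencing read proportions per bin multiplied by bin number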
Conditions: c terminus: a fixed tail appended
ENDPOINT_LABEL: protein stability index

L19N :: 3.63
K9I :: 3.29
L19C :: 4.85
P12M :: 1.77
C2P :: 1.86
K18L :: 1.83
V4T :: 2.83
Q5G :: 3.13
I22V :: 3.09
C2F :: 1.81

*Q* Query (variant): Y10V ; field requested: protein stability index
*A* 1.61

*Q* Now this one: K18M
*A* 2.98
